Data provenance is PubChem BioAssay AID1963866.

# reported pIC50; entries follow
test system: PDC KRAS tumor spheroids with HUVEC/MSC, viability; assay: Anticancer human tumor 349418-098-R-PDC patient-derived lung adenocarcinoma cell line growth inhibition [KRAS2]; conditions: curve of first compound; second compound 0.316 µM;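 further: spheroids exposed to compounds for seven days before readout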
API: returns pIC50 as number; meaning -log10 of concentration in mol/L.

CC(C)n1nc(-c2ccc3oc(N)nc3c2)c2c(N)ncnc21 + C=CC(=O)N1CCN(c2nc(=O)n(-c3c(C)ccnc3C(C)C)c3nc(-c4c(O)cccc4F)c(F)cc23)C(C)C1 :: 9.06
CC1COCCN1c1cc(-c2ccnn2C)c2ccnc(-c3ccn[nH]3)c2n1 (stereo not given) + C=CC(=O)N1CCN(c2nc(OCC3CCCN3C)nc3c2CCN(c2cccc4cccc(C)c24)C3)CC1CC#N :: 7.62
COc1cc2nccc(Oc3ccc(NC(=O)C4(C(=O)Nc5ccc(F)cc5)CC4)cc3)c2cc1OC + COc1cc2nc(C)nc(NC(C)c3cc(N)cc(C(F)(F)F)c3)c2cc1OC1CCOC1 :: 6.14

Please turn your attention to the following entry.
**Q:** Name the reported pIC50 value associated with the compound CC1COCCN1c1cc(-c2ccnn2C)c2ccnc(-c3ccn[nH]3)c2n1 (stereo not given) + CNCc1ccccc1-c1csc(C(C)Nc2nc(C)nc3cc(OC)c(OC)cc23)c1
**A:** 7.52
